All figures here come from ChEMBL document CHEMBL4825718.

The following molecules are shown together with reported IC50 values.
- Tested on: IGR-37 cell line
- assay_protocol: Antiproliferative activity against human IGR37 cells assessed as cell growth inhibition after 72 hrs by Cell titer glo assay
- Format: functional, cell-based
- study_conditions: IGR-37, 72 h
Write the value in nM as a bare number.

Consider the worked cases shown below.
COCCOc1ccc(C2=NNC(=O)O[C@H]2C)cc1C(F)(F)F    0.2
CCCCOc1ccc(C2=NNC(=O)O[C@H]2C)cc1C(F)(F)F    0.5
CCCOc1ccc(C2=NNC(=O)O[C@H]2C)cc1C(F)(F)F    0.3
CCOc1ccc(C2=NNC(=O)O[C@H]2C)cc1C(F)(F)F    0.5
C[C@@H]1OC(=O)NN=C1c1ccc(OCCC(F)(F)F)c(C(F)(F)F)c1    0.3

Query: Provide IC50 value for the following molecule: C[C@@H]1OC(=O)NN=C1c1ccc(OC[C@@H](C)F)c(C(F)(F)F)c1
Reply: 0.3

* * *

The following compounds are shown together with reported pIC50 values.
- experimental_target: cGMP-inhibited 3',5'-cyclic phosphodiesterase 3B (Homo sapiens, UniProt Q13370)
- Sequence (Q13370 whole entry): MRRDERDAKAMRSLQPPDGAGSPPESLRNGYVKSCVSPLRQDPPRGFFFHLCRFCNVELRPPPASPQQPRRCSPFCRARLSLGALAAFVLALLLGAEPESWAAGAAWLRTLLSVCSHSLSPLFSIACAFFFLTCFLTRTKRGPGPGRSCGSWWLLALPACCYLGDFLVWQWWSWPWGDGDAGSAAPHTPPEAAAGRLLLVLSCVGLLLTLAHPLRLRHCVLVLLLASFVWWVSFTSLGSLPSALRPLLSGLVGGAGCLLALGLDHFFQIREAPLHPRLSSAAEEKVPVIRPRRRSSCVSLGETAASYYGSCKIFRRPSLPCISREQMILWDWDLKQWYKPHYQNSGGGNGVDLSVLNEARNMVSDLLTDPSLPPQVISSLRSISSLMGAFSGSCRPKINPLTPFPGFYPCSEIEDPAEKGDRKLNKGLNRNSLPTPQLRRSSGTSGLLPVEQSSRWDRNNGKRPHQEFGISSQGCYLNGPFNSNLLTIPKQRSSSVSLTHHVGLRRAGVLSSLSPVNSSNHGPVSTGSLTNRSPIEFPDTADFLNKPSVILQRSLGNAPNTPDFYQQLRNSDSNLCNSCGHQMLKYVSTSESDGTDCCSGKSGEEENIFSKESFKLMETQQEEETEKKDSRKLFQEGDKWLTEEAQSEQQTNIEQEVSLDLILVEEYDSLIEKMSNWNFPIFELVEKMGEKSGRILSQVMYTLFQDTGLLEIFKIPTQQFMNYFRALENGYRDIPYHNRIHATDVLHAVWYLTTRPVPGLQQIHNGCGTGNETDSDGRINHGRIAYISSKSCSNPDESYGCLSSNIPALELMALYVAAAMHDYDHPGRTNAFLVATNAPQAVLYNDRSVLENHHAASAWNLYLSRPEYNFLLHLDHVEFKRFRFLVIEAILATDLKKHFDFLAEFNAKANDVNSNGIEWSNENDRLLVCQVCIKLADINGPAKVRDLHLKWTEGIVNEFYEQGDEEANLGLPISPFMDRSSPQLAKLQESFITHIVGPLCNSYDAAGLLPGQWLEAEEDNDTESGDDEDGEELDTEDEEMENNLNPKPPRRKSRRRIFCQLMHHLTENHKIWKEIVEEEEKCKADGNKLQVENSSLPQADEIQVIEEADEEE
- assay_protocol: Inhibition of human full length PDE3B expressed in Sf9 cells measured after 60 mins by [3H]-cAMP Scintillation proximity assay
Just the number, please; pIC50 means minus log10 of the concentration in mol/L.

C[C@@H]1OC(=O)NN=C1c1ccc(OC[C@@H](C)F)c(C(F)(F)F)c1    8.05

Query: Provide pIC50 value for the following compound: CCOc1ccc(C2=NNC(=O)O[C@H]2C)cc1C(F)(F)F
Reply: 8.15
